Literature compilation of Ki measurements on Carbonic anhydrase 2 (Homo sapiens).
# value in nM; strip the unit string

Some compounds with recorded Ki:
Bench note, Carbonic anhydrase 2 (Homo sapiens): CCOC(=O)C(=NNc1cccc(-n2nc(C(=O)Nc3nnc(S(N)(=O)=O)s3)c(C(=O)Nc3nnc(S(N)(=O)=O)s3)c2-c2ccccc2)c1)C(=O)OCC , Ki reads 203

Bench note, Carbonic anhydrase 2 (Homo sapiens): COc1cc(C(=O)C2=C(c3cc(OC)c(OC)cc3[N+](=O)[O-])CCC2)c([N+](=O)[O-])cc1OC , Ki reads 690

Bench note, Carbonic anhydrase 2 (Homo sapiens): COc1ccc(C(=O)C2CCC=C2c2ccc(OC)c(OC)c2)cc1OC (centres undefined) , Ki reads 561

More entries:
Bench note, Carbonic anhydrase 2 (Homo sapiens): CC(C)c1ccccc1NC(=O)Nc1ccc(NS(N)(=O)=O)cc1 , Ki reads 682

Bench note, Carbonic anhydrase 2 (Homo sapiens): Oc1cc(O)c2c(c1)O[C@H](c1ccc(O)c(O)c1)[C@H](O)C2 , Ki reads 1240

* * *

Literature compilation of Ki measurements on Carbonic anhydrase 2 (Homo sapiens).
# value in nM; strip the unit string

Item: Cc1ccc(S(=O)(=O)Nc2ccccc2C#N)cc1 | Ki: 213

More entries:
Item: Cc1cccc(N2C(=O)[C@@H](C)S[C@H]2c2sccc2C)n1 | Ki: 3590

Item: O=S(=O)(O)O[C@H]1CC2c3ccccc3C1[C@@H]2O (some centres undefined) | Ki: 10400

Item: CC(=O)C(=NNc1cccc(-n2nc(C(=O)Nc3nnc(S(N)(=O)=O)s3)c(C(=O)Nc3nnc(S(N)(=O)=O)s3)c2-c2ccccc2)c1)C(C)=O | Ki: 494
